What IC50 was measured for each of the following?
- measuredOn: UniProt:Q9WMX2
- Sequence (Q9WMX2 2420-3010): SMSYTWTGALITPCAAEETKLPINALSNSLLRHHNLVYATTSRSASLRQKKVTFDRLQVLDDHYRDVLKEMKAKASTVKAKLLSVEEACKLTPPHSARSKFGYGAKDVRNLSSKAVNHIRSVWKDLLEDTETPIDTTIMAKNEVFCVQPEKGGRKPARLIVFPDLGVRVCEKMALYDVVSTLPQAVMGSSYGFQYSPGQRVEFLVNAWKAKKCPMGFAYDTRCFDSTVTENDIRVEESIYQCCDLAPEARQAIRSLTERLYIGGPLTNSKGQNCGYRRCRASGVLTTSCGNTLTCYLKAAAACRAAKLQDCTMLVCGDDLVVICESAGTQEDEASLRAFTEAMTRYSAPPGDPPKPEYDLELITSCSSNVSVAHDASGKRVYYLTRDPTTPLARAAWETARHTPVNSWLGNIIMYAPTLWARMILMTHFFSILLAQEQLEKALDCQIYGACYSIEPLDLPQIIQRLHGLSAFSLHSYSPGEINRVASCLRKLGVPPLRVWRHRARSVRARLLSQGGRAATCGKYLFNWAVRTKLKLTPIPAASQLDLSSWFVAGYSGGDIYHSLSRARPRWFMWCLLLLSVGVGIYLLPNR
One number for each entry, in nM.

Take a look at these entries with their results.
molecule="CCC1(CC(=O)O)OCCc2c1[nH]c1c(Cl)ccc(Cl)c21 (stereo not drawn) [Example 243]" measurementkind=IC50 experimentalvalue=10000
molecule="CCCC1(CC(=O)O)OCCc2c1[nH]c1c(C(C)C)ccc(C#N)c21 (stereo not drawn) [Example 297]" measurementkind=IC50 experimentalvalue=2800

Need IC50 for each of these molecules.
1. CCCC1(CC(=O)O)OCCc2c1[nH]c1c(C)c(OCc3cccc(F)c3)cc(C#N)c21 (stereo not drawn) [Example 367]
2. Cc1ccc(C#N)c2c3c([nH]c12)[C@@](CC(=O)O)(C1CCC1)OCC3 [Example 285]
3. O=C(O)CC1(CCC(F)(F)F)OCCc2c1[nH]c1c(Cl)ccc(Cl)c21 (stereo not drawn) [Example 245]
4. CSCC1(CC(=O)O)OCCc2c1[nH]c1c(C)ccc(C#N)c21 (stereo not drawn) [Example 282]
5. N#Cc1ccc(Cl)c2[nH]c3c(c12)CCOC3(CC(=O)O)C1CCC1 (stereo not drawn) [Example 327]

1: 90; 2: 1100; 3: 740; 4: 22000; 5: 1700
